# System: A549 human lung cancer cell line harboring constitutively active Ras mutant
# assay: MTT growth inhibition assay, A549
# Format: cell-based
# condition: A549, MTT; Table 1 helix 6 derivatives
# Procedure: MCF-7 (breast cancer), T47D (breast cancer), Colo 205 (colon cancer), JM-1 (rat hepatoma), Sk Mel-2 (melanoma), PLC (human hepatoma), and HepG2 (human hepatoma) were obtained from American Type Cell Culture Collection. […] Cell growth was evaluated utilizing MTT ((3-(4,5-Dimethylthiazol-2-yl)-2,5-diphenyltetrazolium). The absorbance of the wells at 544 nm was determined by a FLUOstar/POLARstar Galaxy (BMG Lab Technologies GmbH) microplate reader. […]
I'd be grateful if you could share measured GI50 for these entries.
Answers are plain numbers, in nM.

Lau-WQRVQRVLTYF (all D) [kR-H6-44]; 1
Lau-YQRVQRVLTYW (all D) [kR-H6-39]; 90
Ac-LRYQRIQRVLTYFAK-e-Pal (all D) [kR-H6-31]; 25
Oct-YQRVQRVLTYF (all D) [kR-H6-50]; 4
Ac-Doa-VEDAFYTLVREIRQYR [kR-H6-5]; 3300
Cap-YQRVQRVLTYW (all D) [kR-H6-41]; 180
Ac-VEDAFYTLVREIRQYRK (e-Pal) [kR-H6-7]; 2700
Cap-YQRVQRVLTYF (all D) [kR-H6-49]; 0.8
Ac-RYQRIERVLTYFAK-e-Pal (all D) [kR-H6-23]; 25
Pal-RYQRIERVLTYFADEV (all D) [kR-H6-1]; 1350

Your task in this section: give GI50 for each listed record.
1. Pal-e-KFYTLVREIRQYR [kR-H6-12]
2. Lau-HQRVQRVLTYF (all D) [kR-H6-43]
3. Pal-Aib-YQRIQRVLTYF (all D) [kR-H6-35]
4. Pal-YQRIQRVLTYFA (all D) [kR-H6-21]
5. Myr-YQRVQRVLTYW (all D) [kR-H6-40]
6. Lau-YQRVQRVLTYFA (all D) [kR-H6-47]
7. Pal-YQRIQRVLTYF (all D) [kR-H6-34]
8. Pal-e-KAFYTLVRQIRQYRL [kR-H6-28]

Ans:
180
300
450
30
20
1
18
250

Your task in this section: give GI50 for each listed record.
1. Pal-e-KAFYTLVREIRQYRL [kR-H6-27]
2. Ac-YQRIQRVLTYFAK-e-Pal (all D) [kR-H6-33]
3. Pal-RYQRIQRVLTYF (all D) [kR-H6-20]
4. Lau-YKRVQRVLTYF (all D) [kR-H6-42]

Ans:
[280, 4.5, 250, 300]

###

# Tested on: A549 human lung cancer cell line harboring constitutively active Ras mutant
# assay: MTT growth inhibition assay, A549
# Assay type: cell-based
# condition: A549, MTT; Table 1 helix 6 derivatives
I'd be grateful if you could share measured GI50 for these entries.
Answers are plain numbers, in nM.

Pal-YQRVQRVLTYF (all D) [kR-H6-36]; 10

# input for lookup
Q: Entry Pal-e-KAFYTLVREIRQYR [kR-H6-6] : reported GI50 = ?
Ans: 250

###

# Test system: A549 human lung cancer cell line harboring constitutively active Ras mutant
# assay: MTT growth inhibition assay, A549
# Assay type: cell-based
# condition: A549, MTT; Table 1 helix 6 derivatives
assay-metric: GI50 (nM)
Give bare numbers, in nM.

Some substances with recorded GI50:
Ac-DAFYTLVREIRQYRK (e-Pal) [kR-H6-9]; 500
Ac-RYQRIQRVLTYFAK-e-Pal (all D) [kR-H6-30]; 10
Lau-YQRVQRVLTYF (all D) [kR-H6-38]; 15

Your task in this section: give GI50 for each listed record.
1. Ac-YQRKQRVLTYFK-e-Pal (all D) [kR-H6-13]
2. Pal-e-KAFYTLVREIRQY [kR-H6-10]
3. Ac-YQRIQRVLTYFK-e-Pal (all D) [kR-H6-11]
4. Pal-YQRKQRVLTYF (all D) [kR-H6-14]
5. Pal-LRYQRIERVLTYFADEV (all D) [kR-H6-2]
6. Ac-RYQRIQRVLTYFK-e-Pal (all D) [kR-H6-32]
7. Ac-AFYTLVREIRQYRK (e-Pal) [kR-H6-8]
8. Cap-YQRVQRVLTYFA (all D) [kR-H6-48]

Ans:
60
300
10
40
300
10
5000
0.8

###

# Test system: A549 human lung cancer cell line harboring constitutively active Ras mutant
# assay: MTT growth inhibition assay, A549
# Type: cell-based
# condition: A549, MTT; Table 1 helix 6 derivatives
assay-metric: GI50

Your task in this section: give GI50 for each listed record.
1. Pal-RYQRIQRVLTYFA (all D) [kR-H6-19]
2. Ac-AFYTLVREIRQYR [kR-H6-17]
3. Pal-KVEDAFYTLVREIRQYR [kR-H6-4]
4. Pal-e-KAFYTLVREIRKHK [kR-H6-18]

Ans:
1. > 1 µM
2. > 5 µM
3. > 5 µM
4. > 1 µM
